FYI, the data here is from ChEMBL document CHEMBL3988442.

Answer each item with its documented Percent Effect.
Target: Proteasome subunit beta (Trypanosoma cruzi) (UniProt O96673)
Sequence (O96673 as listed by the source): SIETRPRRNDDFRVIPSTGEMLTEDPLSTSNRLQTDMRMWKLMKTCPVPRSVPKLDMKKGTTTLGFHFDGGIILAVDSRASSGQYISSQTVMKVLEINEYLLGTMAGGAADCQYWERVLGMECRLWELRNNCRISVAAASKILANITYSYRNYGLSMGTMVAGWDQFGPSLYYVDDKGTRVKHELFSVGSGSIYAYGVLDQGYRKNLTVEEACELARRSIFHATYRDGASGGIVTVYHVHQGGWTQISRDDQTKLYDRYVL
Assay: Trypanosoma cruzi proteasome chymotrypsin-like activity (TcProtChymo) assay.
Type: functional
Parameters: scale not given: in the data most compounds retested in dose-response had high values
Conditions: 9.37 µM
One number for each entry, in %.

Consider the worked cases shown below.
compound	unit.of.measure	recorded.result
Cc1cnn(C2CCCN(C(=O)c3cc(C)sc3C)C2)c1 (centres undefined)	%	18.7
c1nc2c(c(C3CC3)n1)CCN(Cc1ccc3c(c1)OCO3)CC2	%	7.45
CN(C)CC(=O)N1CCOCC2(C1)CN(c1ccccc1)C(=O)CO2 (centres undefined)	%	3.08
O=C(NCCOc1ccc(F)c(F)c1)NCc1ccncc1	%	11.2
CC(=O)N1CCCC(Cc2cncc(Br)c2)CC1 (centres undefined)	%	16.4
O=C(O)C1(Cc2cccc(-c3ccc(F)c(F)c3)c2)CCOCC1	%	5.93

Each of the following entries comes with a recorded value; kindly state Percent Effect for each.
1. COCCOc1ccc(NC(=O)N2CCCC2c2ccncc2)cn1 (centres undefined)
2. Cc1nc(CNC(=O)NCC(O)c2ccc(F)c(F)c2)cs1 (centres undefined)
3. c1csc(CN2Cc3nccn3CC(Cn3cncn3)C2)n1 (centres undefined)

[12.8, 16.3, 11.2]

For each of the compounds below, state Percent Effect.
1. CC(=O)c1cc(CC(=O)NCc2ccc(CN(C)C)cc2)cs1
2. CCOC(=O)CCC(=O)NC(C)c1ccc(NC(=O)CC)cc1 (centres undefined)
3. CC(C)Cc1noc(CN2CCN(c3nccs3)CC2)n1

1. -1.21
2. 9.88
3. 6.25
